Tested on: ATP;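 also: ATP exposure 15 min at 22 °C before imaging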
Assay: switch fluorescence ratio, 500 uM ATP over buffer (Cy3 cluster intensity, sum of 5 cycles each) (fold (ratio)); higher = stronger signal-on switching upon ATP binding; sequences stand for … in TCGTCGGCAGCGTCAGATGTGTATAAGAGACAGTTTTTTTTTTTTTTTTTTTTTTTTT…TC
Details: aptamer strand: ATP DNA aptamer (quencher-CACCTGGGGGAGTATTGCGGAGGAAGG + anchor), 100 nM annealed; ATP concentration: 500 uM
List of switch fluorescence ratio values.
Just the number, please, no unit attached.

The examples below pair each entry with its known result.
>>> test_value("TGGGGGAGAG")
1.01
>>> test_value("ACTGGGAGGC")
1
>>> test_value("TGATAATTGT")
1.01
>>> test_value("CGGGTATGTA")
1
>>> test_value("TGGGGGGCAC")
0.986

Summary for this sequence, CTCGAATGTA : switch fluorescence ratio is 0.994

Summary for this sequence, TTCGTATAGC : switch fluorescence ratio is 1.03

Summary for this sequence, AAGTATTAGA : switch fluorescence ratio is 0.964

Summary for this sequence, TCTGTAAATT : switch fluorescence ratio is 0.991
